- Test system: ROS1
- conditionLabel: concentration: 1 μM,replicates: in singlicate; n = 1;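 note: KINOMEscan kinase panel screen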
Consider the following compounds and their measured %Inh readings.

| compound | %Inh, % |
| --- | --- |
| Cn1ccc2ncnc(Oc3ccc(NC(=O)Nc4cccc(C(F)(F)F)c4)c(Cl)c3)c21 | 12 |
| Cn1ccc2ncnc(Oc3ccc(NC(=O)Nc4ccnc(C(F)(F)F)c4)c(Cl)c3)c21 | 0 |
| O=C(Nc1n[nH]c2cc(-c3ccco3)ccc12)C1CC1 [SB-737447] | 2 |
| Cc1n[nH]c2cc(Nc3ccnc(Nc4cccc(CN5CCOCC5)c4)n3)ccc12 [GW682569] | 57 |
| CN1CCN(CCCNc2nccc(-c3c(-c4ccc(F)cc4)nn4cc(C(N)=O)ccc34)n2)CC1 [GW622475] | 4 |
| COc1cc2c(Nc3ccc(NC(=O)c4ccccc4)cc3)ncnc2cc1OCCCN1CCOCC1 [GSK301329] | 3 |
| O=c1[nH]cc(-c2ccc(O)cc2)c2sc(-c3ccncc3)cc12 [GSK1033723] | 0 |
| O=C(Nc1cccc(C(F)(F)F)c1)c1cccc(Oc2ccc3nccn3n2)c1 | 6 |
| COC(=O)c1cccc(NC(=O)NC2CCN(c3ccnc(NCc4ccc(F)cc4)n3)CC2)c1 [GSK1379860] | 8 |
| C[C@@H](Oc1cc(-n2cnc3ccc(-c4ccncc4)cc32)sc1C(N)=O)c1ccccc1Cl [GSK483724] | 42 |
| CCOC(=O)N1CCC(n2cnc(-c3ccc(F)cc3)c2-c2ccnc(N)n2)CC1 [SB-219952] | 15 |
| FC(F)(F)c1cc(Br)cc(Nc2nccc(-c3cnn4ncccc34)n2)c1 [GW810578] | 12 |
| Cn1cc(-c2cccc3c(N)c(C(N)=O)nnc23)cn1 | 6 |
| Cn1ccc2ncnc(Oc3ccc(NC(=O)Nc4cnn(C(C)(C)C)c4)c(Cl)c3)c21 | 0 |
| Cc1ccn2nc(-c3ccc(F)cc3)c(-c3ccncc3)c2c1.Cl [GW457859] | 0 |
| C[C@@H]1CNc2c(sc3ccc4nc(-c5ccc(O)cc5)ccc4c23)C(=O)N1 | 0 |
| CCn1c(-c2nonc2N)nc2cncc(Br)c21 [SB-738004] | 7 |
| COc1cc(Nc2nccc(N3CCC(NC(=O)c4cccc(C#N)c4)C3)n2)cc(OC)c1OC (stereo not drawn) [GSK1379751] | 9 |
| CC(C)c1nc(-c2cccc(NS(=O)(=O)c3ccccc3)c2)c(-c2ccnc(Nc3ccc4c(c3)CN(C)CC4)n2)s1 [GSK1649598] | 0 |
| CCN1CCN(CCCC(=O)Nc2n[nH]c3nc(-c4ccc(O)cc4)c(Br)cc23)CC1 [SB-731579] | 8 |
| CC(=O)Nc1nc2cnc(Nc3cc(NC(=O)c4cccc(CC(C)(C)C#N)c4)ccc3C)nc2s1 | 6 |
| O=C(NCC1CC1)c1ccc(-c2cc(C(=O)NC3CC3)ccc2F)cc1 [GW810445] | 0 |
| Cn1ccc2ncnc(Oc3ccc(NC(=O)Nc4cc(C(C)(C)C)on4)c(Cl)c3)c21 | 46 |
| C[C@@H](Oc1cc(-n2cnc3cc(-c4ccncc4)ccc32)sc1C(N)=O)c1ccccc1Cl [GSK479719] | 8 |
| CSc1nccc(-c2c(-c3ccc(F)cc3)ncn2CCCN2CCOCC2)n1.Cl [SB-217146] | 0 |
| CC(C(=O)NC1CCN(c2ccnc(Nc3ccc(F)cc3)n2)C1)c1ccc(Cl)cc1 (stereo not drawn) [GSK1379713] | 53 |
| Cl.Nc1n[nH]c2cc(-c3ccccn3)ccc12 [GSK2189892] | 12 |
| NC(=O)Nc1sc(-c2ccc(F)cc2)cc1C(N)=O [GW789449] | 0 |
| Cc1cccc2c(-c3ccncc3)c(-c3ccc(F)cc3)nn12.Cl [GW461487] | 0 |
| COC(=O)Nc1nc2cc(Oc3ccc(NC(=O)Nc4cc(C(F)(F)F)ccc4Cl)cc3)ccc2[nH]1.Cl [GW697465] | 42 |
| NC(=O)c1ccc(-c2cc3ncnc(SCC(=O)O)c3s2)cc1 | 0 |
| Cc1ccc(CC(=O)N2CCc3cc(-c4cn(C)c5ncnc(N)c45)ccc32)cc1 [GSK2634758] | 9 |
| CS(=O)(=O)c1cccc(CNc2nc(Nc3ccc4c(c3)[C@@H]3C[C@@H]4CNC3=O)ncc2C(F)(F)F)c1 | 86 |
| O=C1NCCc2[nH]c(-c3ccncc3)cc21 | 21 |
| Cn1ccc2ncnc(Oc3ccc(NC(=O)Nc4cccc(C(F)(F)F)c4)c(F)c3)c21 | 53 |
| O=C(Nc1ccccc1)c1cccc(Oc2ccc3nccn3n2)c1 | 0 |

---

Consider the following molecules and their measured %Inh readings.
- Tested on: WEE2
- conditionLabel: concentration: 1 μM,replicates: in singlicate; n = 1

| molecule | unitSymbol | %Inh |
| --- | --- | --- |
| Cc1ccc2c(-c3ccnc(Nc4ccc(C(F)(F)F)cc4)n3)cnn2n1 [GW819776] | % | 0 |
| CS(=O)c1ccc(-c2coc3ccc(-c4n[nH]c(=O)o4)cc23)cc1 (stereo not shown) | % | 16 |
| CC(C)c1nc(-c2cccc(NS(=O)(=O)c3ccccc3)c2)c(-c2ccnc(Nc3ccc4c(c3)CN(C)CC4)n2)s1 [GSK1649598] | % | 0 |
| COc1cc2ncn(-c3cc(OCC4CCCCC4)c(C(N)=O)s3)c2cc1OC [GSK204559] | % | 25 |

---

- Tested on: NEK7
- conditionLabel: concentration: 1 μM,replicates: in singlicate; n = 1
T means recorded %Inh is 5% or above; F means it is below 5%.

| compound | qualitativeLabel |
| --- | --- |
| O=C(NOCC1CC1)c1cc(Br)c(F)c(F)c1Nc1ccc(I)cc1Cl | F |
| Cl.Cl.NC[C@H](CC1CCCCC1)NC(=O)c1ccc(-c2ccnc3[nH]ccc23)s1 | F |
| Cc1ccc(Nc2ccnc(Nc3ccc4c(c3)CS(=O)(=O)C4)n2)cc1O.Cl | T |
| COc1cc(Nc2nccc(N3CCC(NC(=O)c4cccc(C#N)c4)C3)n2)cc(OC)c1OC (stereo not shown) | T |
| C[C@@H](Oc1cc(-n2cnc3cc(-c4ccncc4)ccc32)sc1C(N)=O)c1ccccc1Cl | T |
| Cn1ccc2ncnc(Oc3ccc(NC(=O)Nc4cnn(C(C)(C)C)c4)c(Cl)c3)c21 | F |

---

Consider the following compounds and their measured %Inh readings.
- Test system: VRK2
- conditionLabel: concentration: 1 μM,replicates: in singlicate; n = 1

| compound | unitSymbol | %Inh |
| --- | --- | --- |
| CC(C)c1nc(-c2cccc(NS(=O)(=O)c3ccccc3)c2)c(-c2ccnc(Nc3ccc4c(c3)CN(C)CC4)n2)s1 [GSK1649598] | % | 0 |
| C[C@@H](Oc1cc(-n2cnc3cc(-c4ccncc4)ccc32)sc1C(N)=O)c1ccccc1Cl [GSK479719] | % | 0 |
| Cn1ccc2ncnc(Oc3ccc(NC(=O)Nc4cccc(C(F)(F)F)c4)c(F)c3)c21 | % | 0 |
| CCn1c(-c2nonc2N)nc2cncc(Br)c21 [SB-738004] | % | 35 |
| Cn1ccc2ncnc(Oc3ccc(NC(=O)Nc4ccnc(C(F)(F)F)c4)c(Cl)c3)c21 | % | 0 |
| Cc1ccc(Nc2ccnc(Nc3ccc4c(c3)CS(=O)(=O)C4)n2)cc1O.Cl [GW579362] | % | 0 |
| Cn1ccc2ncnc(Oc3ccc(NC(=O)Nc4cc(C(C)(C)C)on4)c(Cl)c3)c21 | % | 19 |
| N#Cc1cccc(C(=O)NC2CCN(c3ccnc(Nc4ccc(F)cc4)n3)C2)c1 (centres unmarked) [GSK1379708] | % | 0 |

---

- Tested on: IKK-epsilon
- Construct: gene IKBKE
- conditionLabel: concentration: 1 μM,replicates: in singlicate; n = 1
Consider the following compounds and their measured %Inh readings.

| compound | %Inh (%) |
| --- | --- |
| O=C(NCC1CC1)c1ccc(-c2cc(C(=O)NC3CC3)ccc2F)cc1 | 0 |
| COc1cc2ncn(-c3cc(OCC4CCCCC4)c(C(N)=O)s3)c2cc1OC | 0 |
| Cc1cccc2c(-c3ccncc3)c(-c3ccc(F)cc3)nn12.Cl | 21 |
| COc1cc(Nc2nccc(N3CCC(NC(=O)c4cccc(C#N)c4)C3)n2)cc(OC)c1OC (stereo not drawn) | 5 |
| Cn1ccc2ncnc(Oc3ccc(NC(=O)Nc4cccc(C(F)(F)F)c4)c(Cl)c3)c21 | 6 |
| COc1ccc(Nc2nccc(N3CCC(NC(=O)c4cccc(C#N)c4)C3)n2)cc1 (stereo not drawn) | 0 |
| COc1cc2c(Nc3ccc(NC(=O)c4ccccc4)cc3)ncnc2cc1OCCCN1CCOCC1 | 0 |
| CC(C)c1nc(-c2cccc(NS(=O)(=O)c3ccccc3)c2)c(-c2ccnc(Nc3ccc4c(c3)CN(C)CC4)n2)s1 | 42 |
| Cc1ccc(C(=O)Nc2ccc(Oc3ccc4nc(NC(=O)C5CC5)cn4c3)c(F)c2)c(=O)n1-c1ccccc1 | 0 |
| C[C@@H]1CCN(C(=O)N2CCCC2)C[C@@H]1N(C)c1ncnc2[nH]ccc12 | 17 |
| O=C(Nc1n[nH]c2cc(-c3ccco3)ccc12)C1CC1 | 0 |
| CCn1c(-c2nonc2N)nc2cncc(CNC3CCNCC3)c21.Cl | 5 |
| CCN1CCN(CCCC(=O)Nc2n[nH]c3nc(-c4ccc(O)cc4)c(Br)cc23)CC1 | 0 |
| Cc1cccc(-c2nc(Nc3ccncc3)c3sccc3n2)n1 | 0 |
| CS(=O)(=O)Nc1ccc(-c2ccnc3[nH]ccc23)cc1 | 34 |
| O=C(Nc1cccc(Oc2ccc3nccn3n2)c1)Nc1cccc(C(F)(F)F)c1 | 0 |
| NC(=O)Nc1sc(-c2ccc(F)cc2)cc1C(N)=O | 0 |
| C[C@@H](Oc1cc(-n2cnc3cc(-c4cnn(C)c4)ccc32)sc1C(N)=O)c1ccccc1Cl | 4 |
